Target: T1, GFP-Pif1 F723A (Saccharomyces cerevisiae, UniProt P07271 40-859, F723A)
T1 sequence: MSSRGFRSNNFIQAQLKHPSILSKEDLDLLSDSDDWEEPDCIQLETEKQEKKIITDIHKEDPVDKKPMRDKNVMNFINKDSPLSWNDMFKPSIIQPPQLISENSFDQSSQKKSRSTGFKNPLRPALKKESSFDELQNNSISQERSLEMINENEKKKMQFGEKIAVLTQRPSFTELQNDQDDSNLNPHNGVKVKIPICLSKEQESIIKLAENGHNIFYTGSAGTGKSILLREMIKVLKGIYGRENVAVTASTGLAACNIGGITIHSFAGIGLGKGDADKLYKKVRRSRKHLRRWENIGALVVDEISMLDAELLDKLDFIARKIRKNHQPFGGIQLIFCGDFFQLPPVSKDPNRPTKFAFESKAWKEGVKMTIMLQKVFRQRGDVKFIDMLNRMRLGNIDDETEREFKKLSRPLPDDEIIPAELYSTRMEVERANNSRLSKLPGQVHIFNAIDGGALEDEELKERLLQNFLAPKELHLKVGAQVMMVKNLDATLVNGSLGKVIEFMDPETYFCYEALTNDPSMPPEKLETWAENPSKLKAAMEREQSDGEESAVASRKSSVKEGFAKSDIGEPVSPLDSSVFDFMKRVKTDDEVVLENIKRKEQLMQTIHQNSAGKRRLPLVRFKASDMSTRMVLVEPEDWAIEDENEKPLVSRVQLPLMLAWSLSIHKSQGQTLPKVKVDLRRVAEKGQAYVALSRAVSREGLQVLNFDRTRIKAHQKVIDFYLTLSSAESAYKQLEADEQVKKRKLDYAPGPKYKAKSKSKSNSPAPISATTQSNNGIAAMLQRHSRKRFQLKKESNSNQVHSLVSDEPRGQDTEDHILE
Test: EMSA; no ATP, 5 mM Mg2+; 35 mM Tris-HCl pH 7.5, 1 mM DTT, 5 mM MgCl2, 60 mM KCl, 0.1 mg/ml BSA, no ATP, 30 min at 30 C; 5 nM ssDNA
Conditions: protein: recombinant; tags: N-terminal superfolder GFP; Ni-NTA purified; label: 5' Alexa647

# BINDER, Kd
rows = [
    ("GCTAGCAGTAGCCAGCATCGAACGTACGATCGGTAACGTA (ssDNA) [40-nt ssDNA]", "55.6 nM"),
]
